Test system: Yellow Fever virus (17D)
Test: microbe, parasite or virus in culture
Format: cell-based
Conditions: Vero, read-out: Antiviral EC50 Yellow Fever virus, MTS
Reported Property: EC50
Please state the number and follow it with the unit.

The reported EC50 value, Yellow Fever virus (17D), for COc1c(C)c2c(c(O)c1C/C=C(\C)CCC(=O)O)C(=O)OC2 [Mycophenolic acid] reads 1400 nM

----------
Tested on: Coxsackie virus B4
Experiment: microbe, parasite or virus in culture
Type: cell-based
Details: Enterovirus B, B4, Vero, read-out: Antiviral EC50 Coxsackie virus B4, Visual CPE score
pEC50: −log10 of the molar value.
Reported Property: pEC50

Form field pEC50, entry COc1c(C)c2c(c(O)c1C/C=C(\C)CCC(=O)O)C(=O)OC2 [Mycophenolic acid] : < 4.00

Taken from paper PMC7540527.
